The reported numbers originate from ChEMBL document CHEMBL1137677.

Each entry below lists one item and its recorded LD50 at 24 h value.
Assay: Acute toxicity in po dosed Wistar albino mouse assessed as mortality after 24 hrs by Karber's arithmetical method
Type: organism-based
Conditions: in vivo
Numeric only. Scale: mg/kg

# molecule-smiles, numeric-readout
records = [
    ("CCN(CC)Cn1c(/C=C/c2ccccc2)nc2ccccc21", 175),
    ("C(=C\\c1nc2ccccc2n1CN1CCOCC1)/c1ccccc1", 200),
]

Proceeding to the next compound to report its LD50 at 24 h.
Qu. So what does the record say about LD50 at 24 h for C(=C\c1nc2ccccc2n1CN1CCCCC1)/c1ccccc1 ?
Ans. 180

---

Test: Apparent permeability across bovine cornea assessed as lag time of permeation by UV-visible spectrophotometer
Format: ADME, tissue-based, Bos taurus
Conditions: cattle
measure-name: Tlag

# molecule-smiles, result
rows = [
    ("C(=C\\c1nc2ccccc2n1CN1CCCCC1)/c1ccccc1", "4.51 min"),
]

Qu. Recorded Tlag of O=C(O)Cc1ccccc1Nc1c(Cl)cccc1Cl , please.
Ans. 3.36 min

Qu. Would you mind telling me what Tlag value was observed for CCN(CC)Cn1cnc2ccccc21 ?
Ans. 16.79 min

Qu. Form field: reported Tlag of Cc1nc2ccccc2[nH]1
Ans. 11.68 min

Qu. Can you look up the measured Tlag of c1ccc2[nH]cnc2c1 for me?
Ans. 18.81 min

Qu. Report Tlag for CCN(CC)Cn1c(/C=C/c2ccccc2)nc2ccccc21 please.
Ans. 4.9 min

Qu. Give the measured Tlag of CN(C)Cn1cnc2ccccc21 .
Ans. 15.31 min

---

Experiment: Apparent permeability across bovine cornea assessed as lag time of permeation by UV-visible spectrophotometer
Type: ADME, tissue-based, Bos taurus
Conditions: cattle
measure-name: Tlag
Answer format: number, then unit.

Example results:
# molecule-smiles, Tlag
measured = [
    ("CC(=O)Nc1ccc(O)cc1", "1.55 min"),
    ("C(=C\\c1nc2ccccc2[nH]1)/c1ccccc1", "9.57 min"),
]

Qu. Item C(=C\c1nc2ccccc2n1CN1CCOCC1)/c1ccccc1 has what recorded Tlag?
Ans. 7.33 min
